- Test system: Plasmodium berghei
- measurement_notes: Screen against P. berghei liver stage (PbLuc), transformed with Luciferase, at 10uM
- Assay type: functional, HepG2
- reported_conditions: tested at 10 uM
About 8,600 (12%) of roughly 69,000 compounds showed an effect of 50% or more. For the sample, strong results were picked, then their nearest neighbours and some compounds at random.
Can you tell me INHIBITION for the items I'm about to list?
Write the value in % as a bare number.

Prompt: Value wanted: INHIBITION (Plasmodium berghei) of entry CCC(O)CN1CCN(C(=O)c2cc3ccccc3n2CC)CC1 (stereo not drawn)
Completion: 1.75

Prompt: Value wanted: INHIBITION (Plasmodium berghei) of entry COc1ccc(CCCN2C(=O)O[C@@H]3CN(C4CCOCC4)C[C@@H]32)cc1
Completion: 34.9

Prompt: Value wanted: INHIBITION (Plasmodium berghei) of entry O=C(NCCn1ccnc1)NCC(c1ccco1)N1CCCC1 (stereo not drawn)
Completion: -14

----------
- Tested on: Plasmodium berghei
- measurement_notes: Screen against P. berghei liver stage (PbLuc), transformed with Luciferase, at 10uM
- Assay type: functional, HepG2
- reported_conditions: tested at 10 uM
Among all 69,000 compounds or so, about 8,600 (12%) showed an effect of 50% or more. This excerpt belongs to a sample that is enriched for strong results.
Can you tell me INHIBITION for the items I'm about to list?
Write the value in % as a bare number.

Prompt: Value wanted: INHIBITION (Plasmodium berghei) of entry CC(=O)N1N=C(COc2ccc(C)cc2)OC1c1ccc(N(C)C)cc1 (centres undefined)
Completion: 11.9

Prompt: Value wanted: INHIBITION (Plasmodium berghei) of entry CC1CCN(CCNCc2cc(-c3ccccc3)cn3nnnc23)CC1
Completion: 23.2

Prompt: Value wanted: INHIBITION (Plasmodium berghei) of entry COc1ccc(C2OC(COc3ccccc3Br)=NN2C(C)=O)cc1 (centres undefined)
Completion: -52.1

Prompt: Value wanted: INHIBITION (Plasmodium berghei) of entry O=C(NCC1(Sc2ccccc2)CC1)c1cc[nH]n1
Completion: 5.15

Prompt: Value wanted: INHIBITION (Plasmodium berghei) of entry N#Cc1cnc2ccccc2c1N1CCN(CCC(=O)O)CC1
Completion: 5.87

Prompt: Value wanted: INHIBITION (Plasmodium berghei) of entry Cc1c[nH]nc1C1CCCN1Cc1ncc[nH]1 (centres undefined)
Completion: -12.3

Prompt: Value wanted: INHIBITION (Plasmodium berghei) of entry N#Cc1ccccc1OCCN1CCCCC1C(=O)N1CCOCC1 (centres undefined)
Completion: 47.1

Prompt: Value wanted: INHIBITION (Plasmodium berghei) of entry CC(C)C(=O)N1CCN(CCOc2cccc(C#N)c2)CC1
Completion: 39.2

Prompt: Value wanted: INHIBITION (Plasmodium berghei) of entry N#Cc1cnc2ccccc2c1N1CCN(C(=O)C2CCC2)CC1
Completion: 90.6

Prompt: Value wanted: INHIBITION (Plasmodium berghei) of entry Cc1nc(Nc2ncccn2)cc(C2CCCN2CC(C)C)n1 (centres undefined)
Completion: 56.3

Prompt: Value wanted: INHIBITION (Plasmodium berghei) of entry Cc1nc(CN2CCCC(N(C)Cc3nccn3C)C2)no1 (centres undefined)
Completion: 13.3

Prompt: Value wanted: INHIBITION (Plasmodium berghei) of entry Fc1ccccc1Cc1noc(CN2CCC(C3CCCCC3)C2)n1 (centres undefined)
Completion: 49.9

Prompt: Value wanted: INHIBITION (Plasmodium berghei) of entry CCc1nc(N2CCCC(CCCOC)C2)c2cnn(C)c2n1 (centres undefined)
Completion: 49.4

Prompt: Value wanted: INHIBITION (Plasmodium berghei) of entry CCCN1CCCC2(CCN(Cc3cncn3C3CCCC3)C2)C1=O (centres undefined)
Completion: 21.2

Prompt: Value wanted: INHIBITION (Plasmodium berghei) of entry Cc1n[nH]c(C)c1CCC(=O)NCC1CCCN(C2CCCC2)C1 (centres undefined)
Completion: 38.6

Prompt: Value wanted: INHIBITION (Plasmodium berghei) of entry Cc1oncc1C(=O)N1CCC2(CCN(Cc3cccc(F)c3)C2=O)C1 (centres undefined)
Completion: 1.48

Prompt: Value wanted: INHIBITION (Plasmodium berghei) of entry O=C(CCc1ccccc1)C1CCCN(Cc2cncn2C2CC2)C1 (centres undefined)
Completion: 27.4

Prompt: Value wanted: INHIBITION (Plasmodium berghei) of entry N#Cc1ccccc1N1CCN(CCC(=O)N2CCOCC2)CC1
Completion: -29.4

Prompt: Value wanted: INHIBITION (Plasmodium berghei) of entry Cc1cc(C(=O)N2CCN(CC(O)Cn3cccn3)CC2)c(C)o1 (centres undefined)
Completion: 29.6

Prompt: Value wanted: INHIBITION (Plasmodium berghei) of entry O=c1c2ccccc2cnn1Cc1cncn1C1CC1
Completion: 0.33

Prompt: Value wanted: INHIBITION (Plasmodium berghei) of entry COc1ncccc1CNC(=O)c1ccc(C)[nH]c1=O
Completion: 20.5

Prompt: Value wanted: INHIBITION (Plasmodium berghei) of entry Cc1cccc(C(=O)N2CCN(C(=O)Cc3ccccn3)CC2)c1C
Completion: 31.8

Prompt: Value wanted: INHIBITION (Plasmodium berghei) of entry COc1ccc(C2OC(COc3ccc(C)cc3)=NN2C(C)=O)cc1 (centres undefined)
Completion: -13.6

Prompt: Value wanted: INHIBITION (Plasmodium berghei) of entry O=C(c1ccno1)N1CCc2ncnc(-c3ccncc3)c2CC1
Completion: 35.5

Prompt: Value wanted: INHIBITION (Plasmodium berghei) of entry N#Cc1ccccc1OCCN1CCN(C(=O)C2CCCC2)CC1
Completion: 65.6

Prompt: Value wanted: INHIBITION (Plasmodium berghei) of entry Cc1nc(Nc2ncccn2)cc(C2CCCN2C(C)C)n1 (centres undefined)
Completion: -0.902

Prompt: Value wanted: INHIBITION (Plasmodium berghei) of entry COCCn1cncc1CN1CCCC(C)(c2ccccc2)C1 (centres undefined)
Completion: 30.1

Prompt: Value wanted: INHIBITION (Plasmodium berghei) of entry CCS(=O)(=O)CCSc1cccc(C#N)c1
Completion: 7.43

Prompt: Value wanted: INHIBITION (Plasmodium berghei) of entry CC(C)(C)C(=O)N1CCN(CCOc2cccc(C#N)c2)CC1
Completion: -18

Prompt: Value wanted: INHIBITION (Plasmodium berghei) of entry CN1CCN(c2cc(NC(=O)Cn3ccc4ccccc43)ncn2)CC1
Completion: 60.1

Prompt: Value wanted: INHIBITION (Plasmodium berghei) of entry Cc1ccc(C(=O)N2CC(C(N)=O)O[C@H](C)C2)c(F)c1 (some centres undefined)
Completion: -110

Prompt: Value wanted: INHIBITION (Plasmodium berghei) of entry CC1(c2ccccc2)CCCN(Cc2cncn2C2CCCC2)C1 (centres undefined)
Completion: 89.6

Prompt: Value wanted: INHIBITION (Plasmodium berghei) of entry CCCN1CCCC2(CCN(Cc3cncn3C3CCCCC3)C2)C1=O (centres undefined)
Completion: -21.5

Prompt: Value wanted: INHIBITION (Plasmodium berghei) of entry N#Cc1cnc2ccccc2c1N1CCC(C(=O)O)CC1
Completion: 35.7

Prompt: Value wanted: INHIBITION (Plasmodium berghei) of entry Cc1nnc(CN2CCN(CCOc3ccccc3C#N)CC2)n1C
Completion: 21.2

Prompt: Value wanted: INHIBITION (Plasmodium berghei) of entry O=C(CCNc1ncccn1)Nc1cc(C(F)(F)F)c[nH]c1=O
Completion: -1.7

Prompt: Value wanted: INHIBITION (Plasmodium berghei) of entry CN(C)S(=O)(=O)NCC(Cc1cccc(F)c1)N1CCNC1=O (centres undefined)
Completion: -15.3

Prompt: Value wanted: INHIBITION (Plasmodium berghei) of entry CC1COCCN1Cc1nc(-c2ccc(Br)s2)no1 (centres undefined)
Completion: -50.8

Prompt: Value wanted: INHIBITION (Plasmodium berghei) of entry CS(=O)(=O)CCSc1cccc(C#N)c1
Completion: 7.84

Prompt: Value wanted: INHIBITION (Plasmodium berghei) of entry CC(=O)N1N=C(COc2ccc(Cl)cc2)OC1c1ccccc1 (centres undefined)
Completion: 68.9

Prompt: Value wanted: INHIBITION (Plasmodium berghei) of entry Cc1ccc(N2CCCC(N(C)c3nn4cc(C)nc4s3)C2)nn1 (centres undefined)
Completion: -21.9

Prompt: Value wanted: INHIBITION (Plasmodium berghei) of entry Cc1nc(Nc2ncccn2)cc(C2CCCN2C)n1 (centres undefined)
Completion: 0.301

Prompt: Value wanted: INHIBITION (Plasmodium berghei) of entry CC(=O)N1N=C(COc2ccc3c(c2)OCO3)OC1c1cccc(Cl)c1 (centres undefined)
Completion: 61.5

Prompt: Value wanted: INHIBITION (Plasmodium berghei) of entry COCCn1cncc1CN1CCCC(C(=O)Cc2ccccc2)C1 (centres undefined)
Completion: 20.5
